B1: Mint3NT, N-terminal fragment (1–214) of Mint3 [human] / factor inhibiting HIF-1 (FIH-1), full-length [human] (parent complex)
chain 1: MDFPTISRSPSGPPAMDLEGPRDILVPSEDLTPDSQWDPMPGGPGSLSRMELDESSLQELVQQFEALPGDLVGPSPGGAPCPLHIATGHGLASQEIADAHGLLSAEAGRDDLLGLLHCEECPPSQTGPEEPLEPAPRLLQPPEDPDEDSDSPEWVEGASAEQEGSRSSSSSPEPWLETVPLVTPEEPPAGAQSPETLASYPAPQEVPGPCDHED
chain 2: MAATAAEAVASGSGEPREEAGALGPAWDESQLRSYSFPTRPIPRLSQSDPRAEELIENEEPVVLTDTNLVYPALKWDLEYLQENIGNGDFSVYSASTHKFLYYDEKKMANFQNFKPRSNREEMKFHEFVEKLQDIQQRGGEERLYLQQTLNDTVGRKIVMDFLGFNWNWINKQQGKRGWGQLTSNLLLIGMEGNVTPAHYDEQQNFFAQIKGYKRCILFPPDQFECLYPYPVHHPCDRQSQVDFDNPDYERFPNFQNVVGYETVVGPGDVLYIPMYWWHHIESLLNGGITITVNFWYKGAPTPKRIEYPLKAHQKVAIMRNIEKMLGEALGNPQEVGPLLNTMIKGRYN

# Variants of: B1
# protocol: ITC; measured three times for each FIH-1 mutant
Mark criterion met for reported dG of -9 kcal/mol or greater; mark criterion not met for anything smaller.

* chain 2 E79A | criterion met
* chain 2 N171A | criterion met
* chain 2 D248A | criterion not met
* chain 2 Y71A | criterion met
